# Test system: huNav1.7α+β1 (human, UniProt Q15858 1-1988; Q07699 19-218)
# Test details: cell-based or functional assay
Readout label: single pulse IC50 (nM)
Numeric only. Scale: nM

Consider the reported single pulse IC50 for these binders:
| Binder | Recorded value |
| --- | --- |
| F010300880 (VHH, vs F0103275B05: S27P, I28V, S33R, N53P, S56D, N93R, A94W) VHH: EVQLVESGGGLVQPGGSLRLSCAASGPVFNINRMAWYRRAPGKQRELVASSTPGGDTNYADSVKGRFTISRDNAKRVYLQMNSLTPEDTAVYYCRWLLQPSIYDISRTYWGQGTLVTVSS | 27 |
| F010300684 (VHH, vs F0103275B05: S27P, I28V, I31W, N53P, N93R, T101I) VHH: EVQLVESGGGLVQPGGSLRLSCAASGPVFNWNSMAWYRRAPGKQRELVASSTPGGSTNYADSVKGRFTISRDNAKRVYLQMNSLTPEDTAVYYCRALLQPSIYDISRIYWGQGTLVTVSS | 200 |

Ask | Dear colleague, I am looking for the recorded single pulse IC50 of the following binder: F010300900 (VHH, vs F0103275B05: S27P, I28V, S33R, N53P, S56D, N93R, A94W, T101I) VHH: EVQLVESGGGLVQPGGSLRLSCAASGPVFNINRMAWYRRAPGKQRELVASSTPGGDTNYADSVKGRFTISRDNAKRVYLQMNSLTPEDTAVYYCRWLLQPSIYDISRIYWGQGTLVTVSS
Reply | 200
